Recorded values, source paper PMC7582705.

target.system: ATX (Homo sapiens, UniProt Q13822)
assay.overview: IC50 Eleanna (Table S2, method not described)
Format: biochemical
measurement.parameters: Table S2; read-out: IC50 Eleanna

>  <molecule>
Cc1nc(-c2ccc(NS(=O)(=O)c3ccc4c5c(cccc35)CC4)cc2)cs1 [SC-30]

>  <IC50>
> 5 µM

$$$$
>  <molecule>
O=C(Nc1c2c(nn1-c1ccccc1)CS(=O)(=O)C2)c1cccc2ccccc12 [SC-6]

>  <IC50>
> 5 µM

$$$$
>  <molecule>
Cc1ccc(C)c(NC(=O)CSc2cn(CC(=O)N3CCCC3)c3ccccc23)c1 [KM-21]

>  <IC50>
> 5 µM

$$$$
>  <molecule>
COCCCN1C(=O)c2[nH]nc(-c3ccccc3)c2C1c1ccc(C(C)C)cc1 (stereo not shown) [KM-2]

>  <IC50>
> 5 µM

$$$$
>  <molecule>
CCOC(=O)Cc1c(CN2CCN(C)CC2)c2ccccc2n1Cc1ccccc1 [KM-30]

>  <IC50>
5 µM

$$$$
>  <molecule>
COc1ccc(C2SCCN2S(=O)(=O)c2ccc3c(c2)Cc2ccccc2-3)cc1 (stereo not shown) [SC-8]

>  <IC50>
> 5 µM

$$$$
>  <molecule>
CN1C(=O)C(=NNC(=O)c2cc(-c3cccs3)nc3ccccc23)c2ccccc21 [SC-40]

>  <IC50>
> 5 µM

$$$$
>  <molecule>
O=C(Cn1cnc2ccsc2c1=O)c1c(-c2ccccc2)[nH]c2ccccc12 [SC-34]

>  <IC50>
5 µM

$$$$
>  <molecule>
O=C(Cc1cccc2ccccc12)Nc1c2c(nn1-c1ccccc1)C[S+]([O-])C2 (stereo not shown) [SC-7]

>  <IC50>
> 5 µM

$$$$
>  <molecule>
O=C1NC(=O)C(=Cc2cn(Cc3ccc4ccccc4c3)c3ccccc23)S1 [SC-45]

>  <IC50>
> 5 µM

$$$$
>  <molecule>
CCOC(=O)c1c(-c2ccccc2)oc2ccc(O)c(CN3CCC(C)CC3)c12 [KM-39]

>  <IC50>
5 µM

$$$$
>  <molecule>
Cc1ccc(-n2nc3c(c2NC(=O)c2ccc4ccccc4c2)C[S+]([O-])C3)cc1 (stereo not shown) [SC-27]

>  <IC50>
> 5 µM

$$$$
>  <molecule>
O=C(Nc1c2c(nn1-c1ccc(F)cc1)C[S+]([O-])C2)c1cccc2ccccc12 (stereo not shown) [SC-14]

>  <IC50>
> 5 µM

$$$$
>  <molecule>
CCOC(=O)c1c(C)c(-c2ccccc2)n(CC(=O)N2CCc3ccccc3C2)c1C [KM-49]

>  <IC50>
5 µM

$$$$
>  <molecule>
Cc1ncc(-c2ccc(NS(=O)(=O)c3ccc4c5c(cccc35)CC4)cc2)o1 [SC-37]

>  <IC50>
> 5 µM

$$$$
>  <molecule>
Cc1ccc(S(=O)(=O)N2CCN3C(=O)c4ccccc4C32c2ccccc2)cc1 (stereo not shown) [SC-26]

>  <IC50>
> 5 µM

$$$$
>  <molecule>
Cn1c(-c2ccccc2)c(C(=O)Cn2cnc3ccsc3c2=O)c2ccccc21 [SC-10]

>  <IC50>
> 5 µM

$$$$
>  <molecule>
COc1ccc2c(CNC3CCC(C)CC3)c(C(=O)O)n(Cc3ccccc3)c2c1 (stereo not shown) [KM-47]

>  <IC50>
> 5 µM

$$$$
>  <molecule>
O=S(=O)(c1ccc(F)cc1)N1C=Cc2ccccc2C1c1c[nH]c2ccccc12 (stereo not shown) [SC-4]

>  <IC50>
> 5 µM

$$$$
